Assay: Pharmacokinetics in CD1 mice, oral gavage and iv
Format: in vivo, mouse
Conditions: CD1(ICR), mouse, plasma, combined fit of both doses by both routes; read-out: Clearance, Slow CLS
Measured Property: clearance
Kindly write the number and append the unit.

Q: # get_value(readout='clearance', item= O=C1c2ccccc2OCC1c1ccc(F)cc1 (racemic) [KBU2046, (±)-3(4-fluorophenyl)chroman-4-one] )
Ans: 0.11 mL/min

###

// reported viability at 3 days, 50 µM for each item listed
Assay: Three-day MTT cell growth inhibition assay, PC3
Format: cell-based, human
Conditions: human, PC3 cells
# unit: % | format: bare number

O=c1c(-c2ccc(O)cc2)coc2cc(O)cc(O)c12 [Genistein, 4′,5,7-trihydroxyisoflavone, reference compound]; 39.3

Q: If you can, please state the reported viability at 3 days, 50 µM value of O=C1c2ccccc2OCC1c1ccc(F)cc1 (racemic) [KBU2046, (±)-3(4-fluorophenyl)chroman-4-one] .
Ans: 88.1
